Would you mind telling me the reported IC50 of each entry?
- system tested: SOS1 (Homo sapiens, UniProt Q07889)
- Sequence (Q07889 1-1333): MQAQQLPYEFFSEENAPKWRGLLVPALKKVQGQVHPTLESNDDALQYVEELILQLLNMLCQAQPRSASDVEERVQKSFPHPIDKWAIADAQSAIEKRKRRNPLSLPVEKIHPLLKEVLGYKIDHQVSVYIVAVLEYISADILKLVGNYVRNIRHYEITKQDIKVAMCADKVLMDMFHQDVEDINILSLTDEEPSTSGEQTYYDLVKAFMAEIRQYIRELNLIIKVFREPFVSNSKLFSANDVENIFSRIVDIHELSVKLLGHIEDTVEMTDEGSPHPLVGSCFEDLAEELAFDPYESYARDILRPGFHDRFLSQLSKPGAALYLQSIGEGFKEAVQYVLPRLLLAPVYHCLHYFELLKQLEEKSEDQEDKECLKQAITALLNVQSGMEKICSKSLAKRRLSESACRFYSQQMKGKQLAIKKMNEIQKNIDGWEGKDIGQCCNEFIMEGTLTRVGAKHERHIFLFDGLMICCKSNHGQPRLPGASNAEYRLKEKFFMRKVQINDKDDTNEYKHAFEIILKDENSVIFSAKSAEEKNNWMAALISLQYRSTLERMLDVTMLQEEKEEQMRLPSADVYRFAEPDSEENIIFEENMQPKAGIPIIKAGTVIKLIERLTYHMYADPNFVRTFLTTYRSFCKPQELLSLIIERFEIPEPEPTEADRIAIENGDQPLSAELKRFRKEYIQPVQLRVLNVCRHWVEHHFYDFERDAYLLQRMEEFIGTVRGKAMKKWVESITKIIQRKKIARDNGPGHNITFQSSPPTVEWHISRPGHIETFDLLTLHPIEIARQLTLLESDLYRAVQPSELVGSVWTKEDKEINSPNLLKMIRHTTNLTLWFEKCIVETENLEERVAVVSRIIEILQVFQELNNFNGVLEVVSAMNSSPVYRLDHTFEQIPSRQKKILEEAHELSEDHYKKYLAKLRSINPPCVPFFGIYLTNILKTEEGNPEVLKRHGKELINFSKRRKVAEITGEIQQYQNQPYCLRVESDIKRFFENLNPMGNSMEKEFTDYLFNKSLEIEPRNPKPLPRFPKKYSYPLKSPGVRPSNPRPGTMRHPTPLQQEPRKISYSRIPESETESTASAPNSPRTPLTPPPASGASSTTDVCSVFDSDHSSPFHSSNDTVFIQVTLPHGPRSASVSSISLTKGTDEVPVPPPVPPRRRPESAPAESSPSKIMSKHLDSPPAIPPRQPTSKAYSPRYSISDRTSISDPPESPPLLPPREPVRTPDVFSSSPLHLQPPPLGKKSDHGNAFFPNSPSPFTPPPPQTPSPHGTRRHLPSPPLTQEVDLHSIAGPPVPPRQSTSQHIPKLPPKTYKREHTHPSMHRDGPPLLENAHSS
Structures can show the parent of a compound that is named as a salt.
Numbers only, in nM.

Reference set, count: 3
{"compound": "C[C@@H](Nc1nnc(N2CCN(C)CC2)c2cc(=O)n(C3CC3)cc12)c1cccc(S(F)(F)(F)(F)F)c1 [Example 89]", "endpoint unit": "nM", "IC50": 4.1}
{"compound": "Cc1c([C@@H](C)Nc2nnc(N3CCC[C@H]3C)c3cc(=O)n(C4(C)CC4)cc23)cccc1C(F)(F)F [Example 63]", "endpoint unit": "nM", "IC50": 7.8}
{"compound": "C[C@@H](Nc1nnc(N2CCS(=O)(=O)CC2)c2cc(=O)n(C3(C)CC3)cc12)c1cccc(C(F)F)c1F [Example 27]", "endpoint unit": "nM", "IC50": 16.5}

# map each compound to its IC50
1. C[C@@H](Nc1nnc(N2CCN(C3CC3)CC2)c2cc(=O)n(C3(C)CC3)cc12)c1cccc(C(F)(F)F)c1 [Example 181, formate]
2. Cc1c([C@@H](C)Nc2nnc(N3CCN(C(C)C)CC3)c3cc(=O)n(C4(C)CC4)cc23)cccc1C(F)(F)F [Example 91]
3. Cc1c(C(F)F)cccc1[C@@H](C)Nc1nnc(N2CCN(C(C)C)CC2)c2cc(=O)n(C3CC3)cc12 [Example 211]
4. Cc1c(C#N)cccc1[C@@H](C)Nc1nnc(N2CC3CC3C2)c2cc(=O)n(C3CC3)cc12 (stereo partly shown) [Example 35]

Output:
1: 7.8; 2: 5.7; 3: 5.2; 4: 14.8

----------
- system tested: SOS1 (Homo sapiens, UniProt Q07889)
- assay comment: biochemical
Structures can show the parent of a compound that is named as a salt.
Would you mind telling me the reported pIC50 of each entry?
One number for each entry, as −log10 of the molar value.

Reference set, count: 6
{"compound": "Cc1c([C@@H](C)Nc2nnc(N3CCSC3)c3cc(=O)n(C4CC4)cc23)cccc1C(F)(F)F [Example 57]", "pIC50": 7.59}
{"compound": "CCNc1nnc(N[C@H](C)c2cccc(C(F)(F)F)c2C)c2cn(C3(C)CC3)c(=O)cc12 [Example 97]", "pIC50": 8.29}
{"compound": "C[C@@H](Nc1nnc(N2CCN(C)CC2)c2cc(=O)n(N3CC4CCCC4C3)cc12)c1cccc(C(F)F)c1F (stereo partly shown) [Example 136, formate]", "pIC50": 8.21}
{"compound": "C[C@@H](Nc1nnc(N2CCC(CO)C2)c2cc(=O)n(C3(C)CC3)cc12)c1cccc(C(F)F)c1F (stereo partly shown) [Example 128]", "pIC50": 8.38}
{"compound": "C[C@@H](Nc1nnc(N2CC(CO)C2)c2cc(=O)n(C3(C)CC3)cc12)c1cccc(C(F)(F)F)c1 [Example 177, formate]", "pIC50": 8.21}
{"compound": "Cc1c([C@@H](C)Nc2nnc(N3CCN(C(C)(C)C)CC3)c3cc(=O)n(C4(C)CC4)cc23)cccc1C(F)(F)F [Example 95]", "pIC50": 8.17}

Shift focus to the following entry.
Task: Name the reported pIC50 value associated with the compound C[C@@H](Nc1nnc(N2CC[C@H](CO)C2)c2cc(=O)n(C3(C)CC3)cc12)c1cccc(C(F)(F)F)c1 [Example 179, formate]
Output: 8.19

----------
- system tested: SOS1 (Homo sapiens)
- Sequence (Q07889 1-1333): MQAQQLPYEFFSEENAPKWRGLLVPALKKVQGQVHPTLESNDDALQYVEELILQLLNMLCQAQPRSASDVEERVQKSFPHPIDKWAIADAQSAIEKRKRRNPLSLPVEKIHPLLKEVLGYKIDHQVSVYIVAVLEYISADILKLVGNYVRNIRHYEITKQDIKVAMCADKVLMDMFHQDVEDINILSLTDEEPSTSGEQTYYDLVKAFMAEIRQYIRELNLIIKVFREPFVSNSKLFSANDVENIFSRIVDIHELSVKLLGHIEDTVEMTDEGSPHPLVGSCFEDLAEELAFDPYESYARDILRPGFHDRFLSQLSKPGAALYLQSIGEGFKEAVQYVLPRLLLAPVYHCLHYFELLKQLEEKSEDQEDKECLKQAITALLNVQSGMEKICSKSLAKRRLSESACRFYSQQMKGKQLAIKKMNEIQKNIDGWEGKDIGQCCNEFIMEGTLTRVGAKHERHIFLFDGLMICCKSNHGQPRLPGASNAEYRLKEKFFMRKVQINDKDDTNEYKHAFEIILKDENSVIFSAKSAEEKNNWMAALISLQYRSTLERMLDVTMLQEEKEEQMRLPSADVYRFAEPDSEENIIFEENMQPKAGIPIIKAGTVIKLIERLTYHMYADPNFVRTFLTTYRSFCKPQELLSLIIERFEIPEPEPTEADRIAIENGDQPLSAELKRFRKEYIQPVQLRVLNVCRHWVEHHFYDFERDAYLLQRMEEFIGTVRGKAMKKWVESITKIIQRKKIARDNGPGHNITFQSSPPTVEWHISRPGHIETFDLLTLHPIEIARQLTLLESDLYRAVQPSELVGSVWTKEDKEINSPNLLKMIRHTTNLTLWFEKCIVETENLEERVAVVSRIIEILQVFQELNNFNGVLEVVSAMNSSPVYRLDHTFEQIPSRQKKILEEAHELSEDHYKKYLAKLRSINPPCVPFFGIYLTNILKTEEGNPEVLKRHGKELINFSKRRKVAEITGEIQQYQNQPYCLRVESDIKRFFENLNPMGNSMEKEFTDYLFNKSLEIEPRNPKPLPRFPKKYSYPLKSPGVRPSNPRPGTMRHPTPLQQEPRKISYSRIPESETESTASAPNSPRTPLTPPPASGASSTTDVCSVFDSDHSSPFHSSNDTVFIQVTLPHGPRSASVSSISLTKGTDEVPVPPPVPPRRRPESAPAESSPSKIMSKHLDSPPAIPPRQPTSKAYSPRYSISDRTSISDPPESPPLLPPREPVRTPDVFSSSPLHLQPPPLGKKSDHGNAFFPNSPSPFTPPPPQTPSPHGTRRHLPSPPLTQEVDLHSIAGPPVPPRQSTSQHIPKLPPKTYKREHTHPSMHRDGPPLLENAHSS
Counter-ions that a name gives are not always drawn.
Would you mind telling me the reported IC50 of each entry?
One number for each entry, in nM.

{"compound": "C[C@@H](Nc1nnc(N2CCN(C3CCCC3)CC2)c2cc(=O)n(C3CC(F)(F)C3)cc12)c1cccc(C(F)F)c1F", "IC50, nM": 5.2}
{"compound": "C[C@@H](Nc1nnc(N2CCN(C3CC3)CC2)c2cc(=O)n(C3(C)CC3)cc12)c1cccc(C(F)(F)F)c1F", "IC50, nM": 6.7}
{"compound": "Cc1c([C@@H](C)Nc2nnc(N3CCN(CC4CC4)CC3)c3cc(=O)n(C4(C)CC4)cc23)cccc1C(F)(F)F", "IC50, nM": 5.4}
{"compound": "C[C@@H](Nc1nnc(N2CC[C@@H](CO)C2)c2cc(=O)n(C3(C)CC3)cc12)c1cccc(C(F)(F)F)c1 [Example 178, formate]", "IC50, nM": 6.3}
{"compound": "Cc1cc(N)cc([C@@H](C)Nc2nnc(N3CCN(C(C)C)CC3)c3cc(=O)n(C4CC4)cc23)c1F [Example 147, formate]", "IC50, nM": 6.3}
{"compound": "Cc1c([C@@H](C)Nc2nnc(N3CC(F)(F)C3)c3cc(=O)n(C4(C)CC4)cc23)cccc1C(F)(F)F", "IC50, nM": 30.9}
{"compound": "Cc1c([C@@H](C)Nc2nnc(N3CCCC3)c3cc(=O)n(C4CC4)cc23)cccc1C(F)(F)F", "IC50, nM": 6}
{"compound": "Cc1c([C@@H](C)Nc2nnc(N3CCCC3)c3cc(=O)n(C4(C)CC4)cc23)cccc1C(F)(F)F", "IC50, nM": 6.1}

# map each compound to its IC50
1. CCn1cc2c(N[C@H](C)c3cccc(C(F)F)c3F)nnc(N3CCN(C(C)C)CC3)c2cc1=O
2. C[C@@H](Nc1nnc(NC2(C)CC2)c2cc(=O)n(C3(C)CC3)cc12)c1cccc(C(F)F)c1F

Output:
8.4
1.4

# map each compound to its IC50
1. Cc1c(C#N)cccc1[C@@H](C)Nc1nnc(N2CCCC2)c2cc(=O)n(C3CC3)cc12
2. CCN(CC)c1nnc(N[C@H](C)c2cccc(C(F)F)c2F)c2cn(C3(C)CC3)c(=O)cc12
3. C[C@@H](Nc1nnc(N2CCC3(CC2)CNC(=O)C3)c2cc(=O)n(C3(C)CC3)cc12)c1cccc(C(F)F)c1F

Output:
9.2
10.6
8
